// data source = patent US20200399381A1

# targetUnderTest: T1, human IFNAR-1 on cells (human, UniProt P17181 28-557)
# T1 sequence (looked up): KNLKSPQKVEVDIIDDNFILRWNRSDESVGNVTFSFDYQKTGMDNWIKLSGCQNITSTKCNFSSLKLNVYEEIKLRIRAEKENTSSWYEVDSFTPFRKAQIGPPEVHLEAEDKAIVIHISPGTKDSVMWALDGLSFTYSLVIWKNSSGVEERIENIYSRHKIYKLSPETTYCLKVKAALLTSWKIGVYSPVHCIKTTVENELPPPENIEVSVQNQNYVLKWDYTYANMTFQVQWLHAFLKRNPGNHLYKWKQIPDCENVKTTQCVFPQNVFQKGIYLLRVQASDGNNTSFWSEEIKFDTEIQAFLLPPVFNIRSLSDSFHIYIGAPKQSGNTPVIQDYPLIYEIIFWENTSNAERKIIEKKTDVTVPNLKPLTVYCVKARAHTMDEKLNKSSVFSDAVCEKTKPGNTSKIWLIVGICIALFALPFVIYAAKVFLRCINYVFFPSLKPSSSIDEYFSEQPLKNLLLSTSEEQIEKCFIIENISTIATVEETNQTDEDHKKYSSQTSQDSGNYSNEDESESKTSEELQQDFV
# procedureDetails: cell-based or functional assay
API: label(entry) gives y if the entry's EC50 (nM), inhibition of IFNα2b-induced SEAP reporter in HEK-Blue IFNα/β cells is strictly smaller than 1 nM; on equality or larger values it gives n.

Given 107E12 (antibody, V domains shown, Hybridoma-derived monoclonal antibody) VH: EVQLQQSGAEFVKPGASVKLSCTASGFNIKDYYIHWVTQKTEQGLEWIGRIDPEDGETKYAPKFQDKATITADSSSNTAYLQLSSLTSVDTAVYFCSREGSFTGWFPYWGQGTLVSVSA VL: DIVMTQSQKFMSTSVGDRVSVTCKARQSVGTYVAWYQQKPGQSPKALIYSTSYRYNGVPDRFTGSGSGTDFTLTISNVQSEDLADYFCQQYHSYPYTFGGGTKLEIK , is recorded EC50 (nM), inhibition of IFNα2b-induced SEAP reporter in HEK-Blue IFNα/β cells strictly lower than 1 nM? n

Please let me know if 485G10 (antibody, V domains shown, Hybridoma-derived monoclonal antibody; also called mouse antibody 485G10) VH: EVQLQQSGAELVKPGASVKLSCTGSGFNIKDYYIHWVKQRTEQGLEWIGRIDPEDGETKYAPKFQGKATITADTSSNTAYLQLSSLTSEDTVVYYCGRYHGYWALDYWGQGTSVTVSS VL: DIVMTQSQKFMSTSVGDRVSVTCKTSQNVGTNVAWYQQKPGQSPKPLIYSTSYRYSGVPDRFTGSGSGTDFTLIISNVQSEDLAEYFCHQYFSYPYTFGGGTLLEIK shows EC50 (nM), inhibition of IFNα2b-induced SEAP reporter in HEK-Blue IFNα/β cells below 1 nM. y

Please determine if 487E3 (antibody, V domains shown, Hybridoma-derived monoclonal antibody) VH: EVQLQQSGAELVKPGASVKLSCSASGFNIKDCYIHWVKQRTEQGLEWIGRIDPEDGETKYAPKFQAKATITADTSSNTAYLQLNSLTSEDTAVYYCARHCNFLYFDYWGQGSTLTVS VL: DIVMTQSQKSMSTSLGDRVTVTCKASQNVGTIVAWYQLKPGQSPKTLIYSASYRSSGVPDRFTGSGSGTDFTLTISNVQSEDLAEYFCQQYNNYPVIFGSGTKLEIR is below 1 nM in terms of EC50 (nM), inhibition of IFNα2b-induced SEAP reporter in HEK-Blue IFNα/β cells. y

Input 4D8 (antibody, V domains shown, Hybridoma-derived monoclonal antibody; Chimeric human IgG1 Fc versions were also made) VH: EVRLQQSGAELVQPGASVKLSCTGFGFNIKDYYMHWVKQRTEQGLEWIGRIDPEDAETKYAPKFQGQATITADTSSNTAYVQVSSLSSEDTAVYYCARGGNFYVMDYWGQGTSVTVSS VL: DIVMTQSQKFMSTSVGDRVSVTCKASQNVGTNVVWYQQKPGQSPKVLIYSASYRYSGVPDRFTGSGSGTDFTLIISNVQSEDLAEYFCQQKNSYPYTFGGGTKLEIK ; condition: EC50 (nM), inhibition of IFNα2b-induced SEAP reporter in HEK-Blue IFNα/β cells strictly below 1 nM. Does it hold? y
